# Test system: human microsomal triglyceride transfer protein mRNA
# Test Description: Antisense inhibition of human microsomal triglyceride transfer protein mRNA levels, quantitative real-time PCR; also: test concentration or dose not given here
# Measurement Setup: averages from two experiments
Strand notation (5' to 3'): a small letter for the sugar, then the base; units joined by * are phosphorothioate-linked, units joined directly phosphodiester-linked; [ ] holds rarer units or linkages, { } end groups; capitals alone tell only the bases. e = 2'-O-(2-methoxyethyl) (MOE); [5mC] = 5-methylcytosine; d = 2'-deoxy (DNA)
Property Measured: % INHIB (inhibition of human microsomal triglyceride transfer protein mRNA levels) (%)
Give the quantity in %, number only.

Prompt: Bench note: what % INHIB (inhibition of human microsomal triglyceride transfer protein mRNA levels) did 144419 (eT*eG*eG*eT*eG*dG*dA*d[5mC]*d[5mC]*dG*d[5mC]*d[5mC]*dA*dG*dA*eG*e[5mC]*eT*e[5mC]*e[5mC]; antisense) [compound 144419] show?
Response: 0

Prompt: Bench note: what % INHIB (inhibition of human microsomal triglyceride transfer protein mRNA levels) did 144441 (e[5mC]*eA*eT*eG*e[5mC]*d[5mC]*dA*d[5mC]*dA*dT*dT*dG*dT*dG*dT*e[5mC]*e[5mC]*e[5mC]*eT*eT; antisense) [compound 144441] show?
Response: 60

Prompt: Bench note: what % INHIB (inhibition of human microsomal triglyceride transfer protein mRNA levels) did 144424 (eA*eG*e[5mC]*eA*eG*dA*dT*dA*d[5mC]*dA*dT*d[5mC]*d[5mC]*dT*dG*eG*eT*eG*eT*e[5mC]; antisense) [compound 144424] show?
Response: 23

Prompt: Bench note: what % INHIB (inhibition of human microsomal triglyceride transfer protein mRNA levels) did 144423 (eA*eG*eT*eG*eT*d[5mC]*d[5mC]*d[5mC]*dA*dG*dT*dG*dA*dT*dG*eA*eT*e[5mC]*eA*eT; antisense) [compound 144423] show?
Response: 41

Prompt: Bench note: what % INHIB (inhibition of human microsomal triglyceride transfer protein mRNA levels) did 144442 (e[5mC]*eG*e[5mC]*eT*eG*dT*dG*d[5mC]*dT*d[5mC]*dT*d[5mC]*dA*dG*dA*eG*eA*eG*e[5mC]*eA; antisense) [compound 144442] show?
Response: 57

Prompt: Bench note: what % INHIB (inhibition of human microsomal triglyceride transfer protein mRNA levels) did 144427 (eT*eA*eA*eG*eG*dT*d[5mC]*dT*dT*d[5mC]*dT*dT*d[5mC]*dA*d[5mC]*e[5mC]*eT*e[5mC]*eA*eT; antisense) [compound 144427] show?
Response: 8

Prompt: Bench note: what % INHIB (inhibition of human microsomal triglyceride transfer protein mRNA levels) did 144434 (e[5mC]*e[5mC]*e[5mC]*eT*eG*dG*dA*d[5mC]*d[5mC]*dT*d[5mC]*dT*dA*dT*dA*eT*eT*eG*eG*e[5mC]; antisense) [compound 144434] show?
Response: 0

Prompt: Bench note: what % INHIB (inhibition of human microsomal triglyceride transfer protein mRNA levels) did 144425 (e[5mC]*e[5mC]*e[5mC]*eT*eT*d[5mC]*dT*d[5mC]*d[5mC]*dT*dG*d[5mC]*dT*dT*d[5mC]*eT*eG*e[5mC]*eA*eT; antisense) [compound 144425] show?
Response: 22
